Listed variants paired with reported self-cleavage
B1: LINE1-full (parent)
chain: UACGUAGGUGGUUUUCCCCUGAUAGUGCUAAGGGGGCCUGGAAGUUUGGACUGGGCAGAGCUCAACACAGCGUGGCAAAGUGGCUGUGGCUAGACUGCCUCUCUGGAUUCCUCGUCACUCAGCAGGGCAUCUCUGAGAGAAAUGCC

# Variants of: B1
# EXPERIMENT: self-cleavage, relative activity (ratio to wild type); higher = more cleavage; in vitro, sequencing; the parent is a self-cleaving ribozyme

{"VARIANT_KEY": "U46C U134C", "self-cleavage": 1.53}
{"VARIANT_KEY": "A117C U130C", "self-cleavage": 2.3}
{"VARIANT_KEY": "A77G U87A", "self-cleavage": 0.09}
{"VARIANT_KEY": "G4C U132C", "self-cleavage": 0.97}
{"VARIANT_KEY": "A79G C113U", "self-cleavage": 0.75}
{"VARIANT_KEY": "U12G G72A", "self-cleavage": 0.9}

Values compiled from the RNAGym collection of RNA variant scans (doi:10.7554/elife.90254).
